Settings: in water, 298.15 K
quantityKind: solubility (mole fraction)

Look up solubility (mole fraction): O=C1NC(=O)c2cc([N+](=O)[O-])ccc21
0.000324

---

Details: in water, 308.15 K
quantityKind: solubility (mole fraction)
Numbers only.

Look up solubility (mole fraction): O=C1NC(=O)c2cc([N+](=O)[O-])ccc21
0.000537

---

Settings: in water, 278.15 K
quantityKind: solubility (mole fraction)
Give bare numbers.

Look up solubility (mole fraction): O=C1NC(=O)c2cc([N+](=O)[O-])ccc21
0.000105

---

Settings: in water, 318.15 K
quantityKind: solubility (mole fraction)
Numbers only.

Look up solubility (mole fraction): O=C1NC(=O)c2cc([N+](=O)[O-])ccc21
0.00086

---

Conditions: in water, 323.15 K
quantityKind: solubility (mole fraction)
Answers are plain numbers.

Look up solubility (mole fraction): O=C1NC(=O)c2cc([N+](=O)[O-])ccc21
0.00109

---

Settings: in water, 293.15 K
quantityKind: solubility (mole fraction)
One number for each entry.

Look up solubility (mole fraction): O=C1NC(=O)c2cc([N+](=O)[O-])ccc21
0.000248

---

Settings: in water, 313.15 K
quantityKind: solubility (mole fraction)
Give bare numbers.

Look up solubility (mole fraction): O=C1NC(=O)c2cc([N+](=O)[O-])ccc21
0.000684
